B1: TPR t1 (parent)
chain: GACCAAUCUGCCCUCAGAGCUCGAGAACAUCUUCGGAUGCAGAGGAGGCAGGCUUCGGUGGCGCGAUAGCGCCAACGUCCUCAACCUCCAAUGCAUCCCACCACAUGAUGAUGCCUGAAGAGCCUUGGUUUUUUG

Variants of: B1
Assay: polymerase ribozyme fitness, log enrichment relative to wild type (log ratio); higher = more active; in vitro selection for triplet polymerase activity
Answer each item with its documented polymerase ribozyme fitness (log ratio).

A selection of reference data follows.
mut	polymerase ribozyme fitness (log ratio)
C34U U116C	-5.7
U55A C73U A83G	-1.24

Batch: polymerase ribozyme fitness (log ratio) for all items listed.
1. G57C C88U A95U
2. G17C A29U U125G
3. C53U C79G U81C

[-1.98, -5.1, -1.9]

Batch: polymerase ribozyme fitness (log ratio) for all items listed.
1. G10A G120U G135C
2. A37G C53G G69A G110U U132C
3. C11G G93U C123U
4. U7C C56G U78C A84U G113C
5. U9A A43U C70U C82A U87C U131A
6. C73G C94A C102U

1. 1.62
2. -6.38
3. 0.981
4. -2.73
5. -1.6
6. -3.82

Batch: polymerase ribozyme fitness (log ratio) for all items listed.
1. A6U C12A U78A C80U C86A G120A
2. C28U U38A C79U C104A C124A U133G
3. G57U G71C
4. C28A A83U
5. U14A G63C
6. G51C A100U
7. C8A U38A A46C

1. -3.45
2. -4.38
3. -3.42
4. -2.16
5. -2.57
6. -5.07
7. -1.09

Batch: polymerase ribozyme fitness (log ratio) for all items listed.
1. G39A A46U
2. C12U U14A C40A A105C
3. C4G A27G A29G

[-1.28, -3.92, -5.02]

Batch: polymerase ribozyme fitness (log ratio) for all items listed.
1. C82U C88G C124U
2. C56U A111U

0.172
-1.9
